molecular target: RSV prefusion F (preF), DS-Cav1 (Respiratory Syncytial Virus, UniProt P03420 26-513); experiment: BLI, IgG on anti-human IgG sensor, 100 nM antigen, 1:1 fit
Provide the reported pKd of each item.
Give bare numbers, as −log10 of the molar value.

BINDER: ADI-41502 (antibody, V domains shown, also called Ab 781; Antibody Number 781) VH: QVQLVQSGAEVKKPGSSVKVSCKASGGPFSSDAMSWVRQAPGQGLEWMGGIIPILGSATYAQKFKGRVTIAADESTSTSYMELSGLKYEDTAVYYCARPFYDPLTGYFDTFNVWGQGTTVTVSS VL: QSVLTQPRSVPGSPGQSVTISCTGTSGDVGGYNYVSWYQQHPGKAPKLVIYDVTKRPSGVPDRFSGSKSGNRASLTISGLQAEDEADYYCCSYAGSQTGYVFGTGTKVTVL
pKd: 8.87

Now take the following binder into account.
# input What value of pKd has been recorded for this entry: ADI-41494 (antibody, V domains shown, also called Ab 774; Antibody Number 774) VH: EVQLVESGGGLVQPGRSLRLSCTTSGFTFGDYAVTWVRQAPGKGLEWIGIMKSKTYRGTTDYAASLRGRFSISRDDSKSIAYLQMTSLKSEDTGVYYCVRGHDYGDPFDYWGQGTLVTVSS VL: QSVLTQPASVSGSPGQSITISCTGGSSDVGYYNYVSWYQQHPGKAPKLLIYDVNNRPSGVSDRFSGSKSGNTASLTISGLQPEDEADYYCSSYTRSRTWVFGGGTKLTVL
# output 8.58
